Where do the numbers come from? From the supplement of paper PMC12764529.

Task for the reader: assign each of the following sequences its reported folding stability dG unfold.
Assay: folding stability dG unfold from trypsin proteolysis; higher = more stable
Express the result in kcal/mol but write the number alone.

Which measured folding stability dG unfold value corresponds to SAGGSAGGSAGGMVELDPENGTLTVLVEVDGELYKVTIKFNPETNEIVSIEVEKLPELEESAGGSAGGSAGG [r7_343_TrROS_Hall] ?
3.03

Query SAGGSKLKNLKSKPFPITFENGGKVTLNVVNIPKSSKPVVNITVIEPNSGKKKTFTVPLEEAKNLLSAGGSA [r2_366_TrMRF] next
0.394

Query SAGGSAGGSAGGKIIHPDLKKPLDVLEKFELIIGGKPYLFFLSRGEGELRLLVIPAGKESAGGSAGGSAGGS [r10_517_TrMRF] next
1.54

Then what about the sequence SAGGSAGGSAGGNKEVEIPIMIYWPDPNGKPNMHTVEIDMPNNDLPDIKDWAEDNPWTIMSAGGSAGGSAGG [r7_539_TrROS] ?
0.287

Lookup KKIHIMFNNPQHVRRIAKKLGPNVKPDDVKKNPNGYYYFEIDLPNGRPIDIHIPSENMPAEDIVDYALEMLS [r1_279_TrROS]
0.88

Try the sequence SAGGSMTVETSISRLPDGTYTVTVTFTLKNPDGSPVGTITIPVTMSPEVLAKTPLETVVAEAVAAASAGGSA [r2_421_JUSTAS]
2.44

Please answer likewise for SAGGSAGGGMTLQITSIIEIKKPPDGPVVKFTVAGPGTTRTVTINLPENEIKPTTPIPLSRVLSSAGGSAGG [r6_585_JUSTAS]
1.86

Another: SAGGSAGGSMKPEVVEEIIKKAEEEGYEIDSVTVNPETNVPVIHFNWPSPELAEKDPELREAASAGGSAGGS [r12_482_TrMRF]
0.13

Entry SAGGTTTTLTFETEEEAREFAEELREKHPDVVLEVEIRRETRTVTVPGVGEVREVDRVVVTVTLTPASAGGS [r16_828_JUSTAS] please
2.03

What about this sequence? SAELEELLKKAEELAKKNNVEVEVEVKLELEPVKVTEYKLNKDGKPVEKKEEEELELRLEIKVKIRPKKSAG [r14_728_TrROS_Hall]
1.26

How about this sequence: SAGGSAGGSKPEPVKPVKLKVKLPGGEYEVEAVELPKGVVLVRNPADNSLAVITPDRLVVLPLSAGGSAGGS [r12_737_TrMRF]
0.754

SAGGMKIKIEVIDPDGKKRVIEIDASTPEEIKAALDALPPGAVVRIVVPSPELREALKEAGVDEVVELSAGG [r13_476_TrROS_Hall] ?
4.37

Proceed to SAKKLIIKVEVETFDEETGELKTEERTIEADTLEDALAEIERELPPGARVRIEVFDADGKLVETIEIELSAG [r14_234_TrROS_Hall]
4.41

Now try SAGGSAGGSAGGKTYRVKVRIYNPETGEVLEIEVEVETDTEEEAKRAAENLARELLKKSSAGGSAGGSAGGS [r10_863_TrROS_Hall] .
2.69

// query: SAGPKVVKIEFLEDNTAKITVEVGSKPVEVEVPVGSVFLIPGGEKIEVIEPGKAKVSPLPEVDVDPEKSAGG [r19_17_TrMRF]
-0.848

Continue with SASAAEEIERALLPLPNIPTAPLATFTLPDAPVEVVSYDPVTGRVLVRLTGTGALFVFDPETGEAELLPSAG [r14_359_TrMRF]
2.56

Now consider SAGGSAGGKAKIKKIEVELNEDGTLKVTAYDEETNEKITLEVKLPKPKPVYFDEEKLKEELEKKSAGGSAGG [r6_627_TrROS_Hall] and answer again.
-0.313

Try this sequence too: SAGGSAGGSAGMTPVEITDPNSDKTYTYDPEKKTLTKYYPGEGKTETFPLTSEEEAKKLLSAGGSAGGSAGG [r11_936_JUSTAS]
-0.536

Likewise for KSKEEQKEQQEEQQKPPPVEIKVEVEVVKSPNGNPYFQFNVEYYDPGDGEPIGEITISVPPDDVDELADEFS [r1_415_TrROS] ?
1.97

Could you do the same for SAGEEIAKRLAEELKEKGYEVEVKVTVEYDEETGEVTITIEIKVKPKPAPPVKIEKKLEGMSEEEKKALSAG [r5_413_TrROS_Hall] , please?
0.113

Next sequence up: SAGGALEKILEAIENAPTSVPEVTVEIELPTGTLKATITNKGKPVLITIELTHPDGSKSTITLTFSLSAGGS [r16_642_TrMRF]
2.78

Next sequence up: SAGGSANFNVKLEIKIIERNPGNPDYVIVRIKVEHRHPNPDGNPMEHRRPIPWIMITDPEEIKEFISAGGSA [r15_1019_TrROS]
2.32

Next: SMKIEFLDVKEDGTIVIRLTLLRPDGKPPTKEEAAERAKEIAEILKPYFPDAEFTIEFDPESGEATIVIDSA [r9_485_TrMRF]
4.66

Also check SAGPSLEVEVERLPGPYVRITARYSRDVPVEVLVEELRAAAPVEVRVEEDPERDFVTVVAVLPLAPDAGSAG [r5_742_TrMRF]
1.28

Continue with SAMVVIPFPKDTPPEVALEAVRKAVREAAENGIVPEKIVVVAHPDLVFLVDSLVEAGIPLENVEFVPSESAG [r14_589_TrMRF]
2.87

And what about the sequence SAGGRIKDIEPIPPNDPPGQKLTIKFPDGGPIEIPMEKEPDENGPYYYKFKLQVNNGEIEVMFRIPNSAGGS [r8_360_TrROS] ?
3.73

Another sequence to look at: SAGGSAPPKRRERIIQIPIKMKPGQTADEMVDNIADWIMDLLPPDMRIEIEVEYHPENGWIMVKIESAGGSA [r15_739_TrROS]
1.21
